These data points were gathered from the supplement of paper PMC9112550.

test system: Escherichia coli TOP10; experiment: shrunken log2 fold change of peptide-encoding DNA abundance (4.5 h post-induction vs induction); higher = less antimicrobial activity (less host growth inhibition); details: time post-induction: 4.5 h; library: site-saturation at positions 5, 18, 19, 20
Use condition met when the recorded shrunken log2 fold change is no lower than -0.3; use condition not met when it is lower.

Example results:
RRIRARPPRLPRPRPRPRITPRP :: condition met
RRIRKRPPRLPRPRPRPTTEPRP :: condition met
RRIRPRPPRLPRPRPRPECKPRP :: condition not met
RRIRYRPPRLPRPRPRPLKHPRP :: condition not met
RRIRSRPPRLPRPRPRPGVMPRP :: condition met
RRIRHRPPRLPRPRPRPCMIPRP :: condition met

Then there is this sequence:
Decide: shrunken log2 fold change of RRIRDRPPRLPRPRPRPKNKPRP >= -0.3?
condition not met

====

system: Escherichia coli TOP10; test: shrunken log2 fold change of peptide-encoding DNA abundance (4.5 h post-induction vs induction); higher = less antimicrobial activity (less host growth inhibition); details: time post-induction: 4.5 h; library: site-saturation at positions 5, 18, 19, 20
property.name: shrunken log2 fold change
Numbers only.

// for each sequence below, give its shrunken log2 fold change
1. RRIRMRPPRLPRPRPRPTPEPRP
2. RRIRPRPPRLPRPRPRPHCAPRP
3. RRIRQRPPRLPRPRPRPSTSPRP
4. RRIRMRPPRLPRPRPRPNPCPRP
5. RRIRPRPPRLPRPRPRPHQWPRP
6. RRIRARPPRLPRPRPRPGDAPRP

0.713
0.228
-0.126
0.169
-0.0599
0.711

Go through the items and report each one's shrunken log2 fold change.
1. RRIRGRPPRLPRPRPRPFIVPRP
2. RRIRFRPPRLPRPRPRPPDIPRP

1. -0.00433
2. -0.329

====

What shrunken log2 fold change was measured for each of the following?
system: Escherichia coli TOP10; assay: shrunken log2 fold change of peptide-encoding DNA abundance (4.5 h post-induction vs induction); higher = less antimicrobial activity (less host growth inhibition); conditions: time post-induction: 4.5 h; library: site-saturation at positions 5, 18, 19, 20
One number for each entry.

RRIRDRPPRLPRPRPRPCREPRP :: 0.123
RRIRTRPPRLPRPRPRPWMHPRP :: 0.032
RRIRNRPPRLPRPRPRPCPFPRP :: -0.208

For each of the sequences below, note its shrunken log2 fold change.
1. RRIRVRPPRLPRPRPRPEKDPRP
2. RRIRFRPPRLPRPRPRPMHEPRP
3. RRIRHRPPRLPRPRPRPTAKPRP
4. RRIRGRPPRLPRPRPRPDLPPRP
5. RRIRARPPRLPRPRPRPPRIPRP

[0.188, 0.085, 0.0616, 0.921, 0.827]

Below are 7 sequences. Give each one its shrunken log2 fold change.
1. RRIRARPPRLPRPRPRPVDVPRP
2. RRIRKRPPRLPRPRPRPFDRPRP
3. RRIRLRPPRLPRPRPRPDVTPRP
4. RRIRDRPPRLPRPRPRPTLVPRP
5. RRIRGRPPRLPRPRPRPAPWPRP
6. RRIRGRPPRLPRPRPRPQFYPRP
7. RRIRFRPPRLPRPRPRPFCYPRP

[-0.113, 0.375, -0.0876, 0.196, 0.891, 0.0417, -0.372]

====

tested on: Escherichia coli TOP10; experiment: shrunken log2 fold change of peptide-encoding DNA abundance (4.5 h post-induction vs induction); higher = less antimicrobial activity (less host growth inhibition); settings: time post-induction: 4.5 h; library: site-saturation at positions 5, 18, 19, 20
# thresholds on shrunken log2 fold change define classes: b0: < -0.2; b1: ≥ -0.2 and < -0.007; b2: ≥ -0.007

RRIRSRPPRLPRPRPRPFICPRP :: b1

Lab note: next sequence to report on.
Please report the category associated with RRIRDRPPRLPRPRPRPSRVPRP , nothing else.
b2

====

tested on: Escherichia coli TOP10; assay: shrunken log2 fold change of peptide-encoding DNA abundance (4.5 h post-induction vs induction); higher = less antimicrobial activity (less host growth inhibition); conditions: time post-induction: 4.5 h; library: site-saturation at positions 5, 18, 19, 20
shrunken log2 fold change below 0.06 gives NOT MET; shrunken log2 fold change at or above it gives MET.

Examples with answers:
RRIRGRPPRLPRPRPRPESDPRP :: MET
RRIRCRPPRLPRPRPRPEKKPRP :: MET
RRIRCRPPRLPRPRPRPCDMPRP :: NOT MET
RRIRYRPPRLPRPRPRPQYMPRP :: NOT MET
RRIRQRPPRLPRPRPRPPQDPRP :: MET
RRIRTRPPRLPRPRPRPCNPPRP :: NOT MET
RRIRFRPPRLPRPRPRPQDVPRP :: NOT MET
RRIRERPPRLPRPRPRPRYDPRP :: NOT MET

Now for a further sequence.
Reported shrunken log2 fold change at or above 0.06? RRIRYRPPRLPRPRPRPMFNPRP
NOT MET

====

test system: Escherichia coli TOP10; assay: shrunken log2 fold change of peptide-encoding DNA abundance (4.5 h post-induction vs induction); higher = less antimicrobial activity (less host growth inhibition); conditions: time post-induction: 4.5 h; library: site-saturation at positions 5, 18, 19, 20
Returns one of 1.0 or 0.0; 1.0 when shrunken log2 fold change is >= -0.1.

RRIRVRPPRLPRPRPRPRHGPRP :: 1.0

Decide: shrunken log2 fold change of RRIRERPPRLPRPRPRPKTRPRP >= -0.1?
1.0

What would you report for RRIRSRPPRLPRPRPRPLTSPRP ?
1.0

// query: RRIRTRPPRLPRPRPRPPHSPRP
0.0

Follow-up item: RRIRGRPPRLPRPRPRPFNSPRP
1.0

Now consider RRIRFRPPRLPRPRPRPPREPRP .
1.0

Input RRIRQRPPRLPRPRPRPATPPRP
1.0

Now the same for RRIRCRPPRLPRPRPRPLGHPRP
0.0

====

system: Escherichia coli TOP10; test: shrunken log2 fold change of peptide-encoding DNA abundance (4.5 h post-induction vs induction); higher = less antimicrobial activity (less host growth inhibition); details: time post-induction: 4.5 h; library: site-saturation at positions 5, 18, 19, 20
Each record gets a class by shrunken log2 fold change: small value: < -0.1; mid value: ≥ -0.1 and < 0.007; large value: ≥ 0.007

Answered examples (10):
RRIRDRPPRLPRPRPRPIPNPRP :: large value
RRIRERPPRLPRPRPRPIMYPRP :: small value
RRIRIRPPRLPRPRPRPLSRPRP :: small value
RRIRKRPPRLPRPRPRPVKPPRP :: large value
RRIRVRPPRLPRPRPRPWSWPRP :: large value
RRIRCRPPRLPRPRPRPYPWPRP :: small value
RRIRNRPPRLPRPRPRPGIYPRP :: small value
RRIRFRPPRLPRPRPRPIFIPRP :: small value
RRIRYRPPRLPRPRPRPDIPPRP :: small value
RRIRVRPPRLPRPRPRPKHCPRP :: large value

With those in mind, consider the next sequence.
Place this sequence in its band: RRIRQRPPRLPRPRPRPCKIPRP
mid value

====

tested on: Escherichia coli TOP10; assay: shrunken log2 fold change of peptide-encoding DNA abundance (4.5 h post-induction vs induction); higher = less antimicrobial activity (less host growth inhibition); details: time post-induction: 4.5 h; library: site-saturation at positions 5, 18, 19, 20
Note to self: values exactly at -0.08 are 1 (yes). So shrunken log2 fold change at or above -0.08 is 1 (yes), below is 0 (no).

Illustrative cases are given below, each with its answer.
RRIRNRPPRLPRPRPRPFWCPRP :: 1 (yes)
RRIRARPPRLPRPRPRPCSVPRP :: 1 (yes)
RRIRYRPPRLPRPRPRPPVHPRP :: 1 (yes)
RRIRERPPRLPRPRPRPMKDPRP :: 1 (yes)
RRIRSRPPRLPRPRPRPADGPRP :: 1 (yes)
RRIRVRPPRLPRPRPRPIWKPRP :: 0 (no)
RRIRKRPPRLPRPRPRPFYEPRP :: 1 (yes)
RRIRLRPPRLPRPRPRPYTSPRP :: 0 (no)
RRIRERPPRLPRPRPRPLNRPRP :: 1 (yes)
RRIRTRPPRLPRPRPRPQLAPRP :: 1 (yes)

Determine whether measured shrunken log2 fold change meets or exceeds -0.08 for RRIRTRPPRLPRPRPRPEGTPRP
1 (yes)

What do you get for RRIRERPPRLPRPRPRPGPHPRP ?
1 (yes)

Now consider RRIRSRPPRLPRPRPRPNYGPRP and answer again.
0 (no)

====

test system: Escherichia coli TOP10; test: shrunken log2 fold change of peptide-encoding DNA abundance (4.5 h post-induction vs induction); higher = less antimicrobial activity (less host growth inhibition); conditions: time post-induction: 4.5 h; library: site-saturation at positions 5, 18, 19, 20;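 also: peptides expressed intracellularly from a pBAD plasmid library in pooled LB shake-flask culture, induced with 0.3% L-arabinose, DNA abundance read by NGS, three biological replicates, DESeq2 with apeglm shrinkage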
property.name: shrunken log2 fold change

Field: example entries. Status: answers known.
RRIRMRPPRLPRPRPRPNCPPRP :: -0.0204
RRIRCRPPRLPRPRPRPCPSPRP :: -0.0705
RRIRTRPPRLPRPRPRPCDEPRP :: -0.0429
RRIRCRPPRLPRPRPRPTTLPRP :: -0.219
RRIRVRPPRLPRPRPRPTSYPRP :: -0.45
RRIRARPPRLPRPRPRPDAAPRP :: 1.48

I would be grateful if you could provide shrunken log2 fold change for each of the following entries.
1. RRIRQRPPRLPRPRPRPHQQPRP
2. RRIRERPPRLPRPRPRPVFIPRP
3. RRIRKRPPRLPRPRPRPSFCPRP
4. RRIRIRPPRLPRPRPRPAECPRP
5. RRIRSRPPRLPRPRPRPVCCPRP
6. RRIRPRPPRLPRPRPRPVGTPRP
7. RRIRIRPPRLPRPRPRPRTRPRP

1. -0.101
2. -0.281
3. -0.0321
4. -0.311
5. 0.183
6. 0.1
7. 0.0709
